# Test system: HEK293
# MEASUREMENT_DESCRIPTION: Cytotoxic Profiling of Annotated Libraries Using Quantitative High-Throughput Screening (AID 1296008); further: on the % scale 0 is the no-effect control and ±100 the full control effect; nearly all actives have a fitted effect of over 60% in size
# ASSAY_CONTEXT: Five cell lines viability, CellTiter-Glo ATP luminescence, 48-72 h; active compounds read low
Results filed as inconclusive are left out.
Below, each of the compounds is paired with its reported max response value.
Write the number in % without appending the unit.

Field: example entries. Status: answers known.
CCN(CCN(C)C)C(=O)CNCc1cc(C(N)=O)ccn1 ... 1.94
CC1CC(=O)C2C(O)(C1)CC(O)C13OC1c1c(O)cccc1C(=O)C23O (configuration not stated) ... -12.4
C[C@@H]1O[C@@H](O[C@H]2[C@@H]3C=CO[C@@H](O[C@@H]4O[C@H](CO)[C@@H](O)[C@H](O)[C@H]4O)[C@@H]3[C@@]3(CO)O[C@@H]23)[C@H](O)[C@H](OC(=O)/C=C/c2ccc(O)c(O)c2)[C@H]1O ... 1.13
C[C@@H]1O[C@@H](O[C@H]2[C@@H]3C=CO[C@@H](O[C@@H]4O[C@H](CO)[C@@H](O)[C@H](O)[C@H]4O)[C@@H]3[C@@]3(CO)O[C@@H]23)[C@H](OC(=O)/C=C/c2ccc(O)cc2)[C@H](O)[C@H]1O ... -82.6
NC(=O)c1ccc(F)c2c1C[C@@H](N(C1CCC1)C1CCC1)CO2 ... -5.17
C=C(C(=O)O)[C@@H]1CC[C@@]2(C)CC[C@@H](O)C(=C)C2C1 (some centres not stated) ... -1.36

**Query** If you can, please state the reported max response value of C[C@@]1(C(=O)O)CCC[C@@]2(C)C3=CC[C@H]4C[C@@]3(CC[C@H]12)CC4(O)CO (some centres not stated) .
**Result** 4.94

---

# Tested on: CASKI
# MEASUREMENT_DESCRIPTION: Primary qHTS to identify gynecologic anti-cancer compounds using libraries of approved drugs and bioactive compounds (AID 1345084); further: on the % scale 0 is the no-effect control and ±100 the full control effect; nearly all actives have a fitted effect of over 55% in size
# ASSAY_CONTEXT: Gynecologic cancer cell panel viability, ATPlite luminescence, 48 h; series mostly up to 57.5 µM
Results filed as inconclusive are left out. The source made the active and inactive calls. Calls follow the shape of the dose curve; as a rule, active = well fitted cell-killing curve with a large enough effect; inconclusive = small, poorly fitted or top-dose-only effect, or effect the other way; inactive = flat fitted curve, though single readings scatter.
PARAMETER_MEASURED: activity change, negative = cytotoxicity

COC(=O)C1=CO[C@@H](O[C@@H]2O[C@H](CO)[C@@H](O)[C@H](O)[C@H]2O)[C@@H]2[C@@H](C)[C@@H](O)C(O)[C@H]12 (stereo partly drawn) ... inactive
CC(=O)OC/C(=C/C(=O)O)CC[C@@H]1C(C)=CC(=O)[C@@H]2C(C)(C)CCC[C@@]12C ... inactive
C/C=C(\C)C(=O)OC[C@H]1O[C@@H](O[C@H]2[C@@H](O[C@H]3O[C@H](CO)[C@@H](O)[C@H](O)[C@H]3O[C@@H]3O[C@H](CO)[C@@H](O)[C@H](O)[C@H]3O)O[C@H](COC(=O)/C(C)=C/C)[C@@H](O)[C@@H]2O)[C@H](O)[C@@H](O)[C@@H]1O ... -6.51% [at 11.6 µM] (inactive)

---

# MEASURED_TARGET: Luciferin 4-monooxygenase (Photinus pyralis) (UniProt P08659)
# MEASUREMENT_DESCRIPTION: Primary firefly luciferase (FLuc) qHTS assay for identification of artifact compounds. (AID 1845220); further: nearly all actives have a fitted effect of over 60% in size;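 on activity change, negative = inhibition: plate controls were DMSO vehicle for no effect and no enzyme for full effect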
# ASSAY_CONTEXT: purified firefly luciferase, luminescence, 5 min; series mostly up to 54.1 µM
Activity calls are given as the source filed them. Calls follow the shape of the dose curve; as a rule, active = well fitted inhibition curve with a large enough effect; inconclusive = small, poorly fitted or top-dose-only effect; inactive = flat fitted curve, though single readings scatter.
PARAMETER_MEASURED: activity change, negative = inhibition

COc1cc(C2Oc3c(OC)cc(/C=C/C(=O)OC4CC(O)(C(=O)O)CC(O)C4O)cc3C2CO)ccc1O (centres undefined) ... inactive
C=C1C2(C)CC3C4(C)C=CC(=O)OC(C)(C)C4CCC3(C)C1(C(=O)OC)C(=O)C(C)(O)C2=O (centres undefined) ... inactive
CC(/C=C/C=C(\C)C(=O)O[C@@H]1O[C@H](CO[C@@H]2O[C@H](CO)[C@@H](O)[C@H](O)[C@H]2O)[C@@H](O)[C@H](O)[C@H]1O)=C\C=C\C=C(C)\C=C\C=C(/C)C(=O)O[C@@H]1C[C@](O)(C(=O)O)C[C@@H](O)[C@H]1OC(=O)/C=C/c1ccc(O)c(O)c1 ... -0.112% [at 11.6 µM] (inactive)
CCCN(CCN1CCN(c2ccccc2OC)CC1)C1CCc2ncsc2C1 (centres undefined) ... inactive
C/C=C1/[C@H](O[C@@H]2O[C@H](CO)[C@@H](O)[C@H](O)[C@H]2O)OC=C(C(=O)OC)[C@H]1CC(=O)OCCc1ccc(OC(=O)C[C@@H]2C(C(=O)OC)=CO[C@@H](O[C@@H]3O[C@H](CO)[C@@H](O)[C@H](O)[C@H]3O)/C2=C/C)cc1 ... 2.52% [at 11.6 µM] (inactive)
COc1c(C)c(OCC=C(C)C)cc2c1CNC2=O ... inactive
CC1OC(OC2C(OC3C(O[C@H]4CC[C@@]5(C)C(CC[C@]6(C)C5C(=O)CC5=C7CC(C)(C)CC(O)[C@]7(C)CC[C@]56C)C4(C)C)OC(C(=O)O)C(O)C3O)OCC(O)C2O)C(O)C(O)C1O (some centres undefined) ... 0.49% [at 11.6 µM] (inactive)
C=C1CC/C=C(/C(=O)O)CCC2C1CC2(C)C (centres undefined) ... inactive

**Query** If you can, please state the reported activity change, negative = inhibition value of CCOC(=O)C(CCc1ccccc1)NC1CCCN2CCCC(C(=O)O)N2C1=O (centres undefined) .
**Result** inactive

**Query** If you can, please state the reported activity change, negative = inhibition value of COc1ccc(C2OCC3C(c4cc(OC)c5c(c4)OCO5)OCC23)cc1OC (centres undefined) .
**Result** inactive

**Query** If you can, please state the reported activity change, negative = inhibition value of CC(=O)O[C@H]1C[C@@H](O)C(C)(C)C2C[C@@H](OC(C)=O)[C@@]3(C)C4=CCC(C(CO)CC(O)C5OC5(C)C)[C@]4(C)CCC3[C@]21C (some centres undefined) .
**Result** inactive

---

# Test system: PA-1
# MEASUREMENT_DESCRIPTION: Primary qHTS to identify gynecologic anti-cancer compounds using libraries of approved drugs and bioactive compounds (AID 1345084); further: on the % scale 0 is the no-effect control and ±100 the full control effect; nearly all actives have a fitted effect of over 55% in size
# ASSAY_CONTEXT: Gynecologic cancer cell panel viability, ATPlite luminescence, 48 h; series mostly up to 57.5 µM
Records with an inconclusive call do not appear. Activity calls are given as the source filed them. The call rests on the fitted dose curve; in most records, active means well fitted cell-killing curve with a large enough effect; inconclusive means small, poorly fitted or top-dose-only effect, or effect the other way; inactive means flat fitted curve, though single readings scatter.
PARAMETER_MEASURED: activity change, negative = cytotoxicity

Field: example entries. Status: answers known.
CC(=O)OC1C(C)C2C(OC3OC(CO)C(O)C(O)C3O)OC=C(C(=O)O)C2C1OC(=O)c1ccccc1 (stereo not drawn) ... inactive
OC[C@@]1(O)CO[C@H](OC[C@H]2O[C@@H](OCCc3ccccc3)[C@H](O)[C@@H](O)[C@@H]2O)[C@@H]1O ... inactive
O=C(O)[C@H]1Cc2ccccc2CN1 ... 3.48% [at 6.55 µM] (inactive)
C=C(COC(=O)CC(C)C)C1Cc2cc(C(C)=O)ccc2O1 (stereo not drawn) ... inactive
O=C(c1ccc(Cl)c([N+](=O)[O-])c1)N1CCN(c2ccccc2F)CC1 ... inactive

**Query** Please provide the recorded activity change, negative = cytotoxicity for COc1ccccc1Oc1c(NS(=O)(=O)c2ccc(C)cn2)nc(-c2ccncc2)nc1OC , tested on PA-1.
**Result** inactive

**Query** Please provide the recorded activity change, negative = cytotoxicity for COc1cc(C)c(C(=O)OC2C(C)OC(OC3CCC(C)C4C3C=C(C)C3/C(C)=C\CC/C(C)=C/C5(C)C=C(C(=O)O)C(C)CC56OC(=O)/C(=C(\O)C34C)C6=O)C(O)C2O)c(OC)c1 (stereo not drawn) , tested on PA-1.
**Result** -4.04% [at 11.6 µM] (inactive)

**Query** Please provide the recorded activity change, negative = cytotoxicity for C=C1CC[C@@]2(OC1)O[C@H]1CC3[C@@H]4CC=C5C[C@H](O[C@H]6OC[C@@H](O)C(O)[C@@H]6O[C@@H]6O[C@@H](C)[C@H](O)[C@@H](O[C@@H]7O[C@H](CO)[C@@H](O)[C@H](O)[C@H]7O)[C@H]6O)C[C@@H](O)[C@]5(C)C4CC[C@]3(C)[C@H]1[C@@H]2C (stereo partly drawn) , tested on PA-1.
**Result** 3.82% [at 11.6 µM] (inactive)

---

# Test system: CASKI
# MEASUREMENT_DESCRIPTION: Primary qHTS to identify gynecologic anti-cancer compounds using libraries of approved drugs and bioactive compounds (AID 1345084); further: on the % scale 0 is the no-effect control and ±100 the full control effect; nearly all actives have a fitted effect of over 55% in size
# ASSAY_CONTEXT: Gynecologic cancer cell panel viability, ATPlite luminescence, 48 h; series mostly up to 57.5 µM
Inconclusive results are not listed. Active and inactive are the calls of the source. Calls come from the whole dose curve; as a rule, active = well fitted cell-killing curve with a large enough effect; inconclusive = small, poorly fitted or top-dose-only effect, or effect the other way; inactive = flat fitted curve, though single readings scatter.
PARAMETER_MEASURED: activity change, negative = cytotoxicity

Field: example entries. Status: answers known.
NC(=O)NCCCC(NC(=O)Cc1ccccc1)C(=O)O (stereo unspecified) ... inactive
CC1=CC(=O)CC(C)(C)C1/C=C/C(C)OC1OC(COC2OCC(O)C(O)C2O)C(O)C(O)C1O (stereo unspecified) ... inactive
COC1CC(O[C@H]2CC[C@@]3(C)C(=CC[C@]4(O)C3[C@H](O)[C@@H](O)[C@]3(C)[C@@H]([C@H](C)O)CC[C@@]34O)C2)OC(C)C1OC1CC(OC)C(OC2CC(OC)C(OC3OC(C)C(OC4OC(CO)C(O)C(O)C4O)C(OC)C3O)C(C)O2)C(C)O1 (stereo partly specified) ... 17.9% [at 11.6 µM] (inactive)
CC(C)N(CCCNC(=O)Nc1ccc(C(C)(C)C)cc1)C[C@H]1O[C@@H](n2ccc3c(N)ncnc32)[C@H](O)[C@@H]1O ... inactive
C=C1CC[C@@]2(OC1)O[C@H]1CC3C4CC=C5C[C@@H](O[C@@H]6O[C@@H](C)[C@H](O)[C@@H](O)[C@H]6O)C[C@@H](O[C@@H]6O[C@H](C)[C@H](O)[C@H](O)[C@H]6O[C@@H]6O[C@@H](C)[C@H](O)[C@@H](O)[C@H]6O)[C@]5(C)C4CC[C@]3(C)[C@H]1[C@@H]2C (stereo partly specified) ... -15.2% [at 11.6 µM] (inactive)

Now for another entry.
**Query** If you can, please state the reported activity change, negative = cytotoxicity value of Cc1cc(CNC(=O)c2cc(C(=O)NCc3ccc(F)c(C)c3)ncn2)ccc1F .
**Result** inactive
